Numbers sourced from ChEMBL document CHEMBL4002562.

# maps each entry to its Ratio IC50
- Tested on: NCI-H460
- experiment: Resistant factor, ratio of IC50 for human doxorubicin-resistant NCI-H460 cells to IC50 for human NCI-H460 cells
- Type: functional
Output: the number by itself.

> print(dat)
                                     smiles  measured.on  test.readout  experimental.value
1  CC[C@H](C)[C@H](NC(=S)Nc1cccc([N+](=O)[O-])c1)C(=O)N[C@H](Cc1ccccc1)C(=O)Nc1cccc(C(F)(F)F)c1     NCI-H460    Ratio IC50                3.96
2  CC[C@H](C)[C@H](NC(=S)Nc1cccc([N+](=O)[O-])c1)C(=O)N[C@H](Cc1ccccc1)C(=O)Nc1ccc(Cl)c(Cl)c1     NCI-H460    Ratio IC50                2.18

The compound CC[C@H](C)[C@H](NC(=S)Nc1cccc([N+](=O)[O-])c1)C(=O)N[C@H](Cc1ccccc1)C(=O)Nc1ccc(F)cc1 on NCI-H460: Ratio IC50 was 2.09

The compound CC[C@H](C)[C@H](NC(=S)Nc1ccc(C(F)(F)F)cc1)C(=O)N[C@H](Cc1ccccc1)C(=O)Nc1cccc(Br)c1 on NCI-H460: Ratio IC50 was 1.58
